Cited source for all entries: ChEMBL document CHEMBL1123688

target: GABA-A receptor; anion channel; assay: Inhibition of [3H]-diazepam binding to GABA-A benzodiazepine receptor of rat cerebral cortical membranes; assay type: cell membranes, Membrane
measurement_kind: IC50 (nM)

>  <structure_smiles>
Clc1ccc2[nH]c3c4c5ccccc5nc-4c[nH]c3c2c1

>  <experimental_system>
GABA-A receptor; anion channel

>  <measurement_kind>
IC50

>  <measure_unit>
nM

>  <reported_result>
2150

$$$$
>  <structure_smiles>
Clc1ccc2c(c1)[nH]c1c2ncc2[nH]c3ccccc3c21

>  <experimental_system>
GABA-A receptor; anion channel

>  <measurement_kind>
IC50

>  <measure_unit>
nM

>  <reported_result>
10

$$$$
>  <structure_smiles>
COc1ccc2c(c1)[nH]c1c2ncc2[nH]c3ccccc3c21

>  <experimental_system>
GABA-A receptor; anion channel

>  <measurement_kind>
IC50

>  <measure_unit>
nM

>  <reported_result>
8

$$$$
>  <structure_smiles>
Clc1cccc2c1[nH]c1c3c4ccccc4nc-3c[nH]c12

>  <experimental_system>
GABA-A receptor; anion channel

>  <measurement_kind>
IC50

>  <measure_unit>
nM

>  <reported_result>
80

$$$$

* * *

target: GABA-A receptor; anion channel; experiment: Inhibition of [3H]-diazepam binding to GABA-A benzodiazepine receptor of rat cerebral cortical membranes
pIC50: −log10 of the molar value.
# maps each entry to its pIC50
measurement_kind: pIC50

>  <structure_smiles>
Fc1ccc2c(c1)[nH]c1c3c4ccccc4nc-3c[nH]c12

>  <experimental_system>
GABA-A receptor; anion channel

>  <reported_result>
8.15

$$$$
>  <structure_smiles>
c1ccc2c(c1)[nH]c1c2ncc2[nH]c3ccccc3c21

>  <experimental_system>
GABA-A receptor; anion channel

>  <reported_result>
8.40

$$$$
>  <structure_smiles>
Fc1ccc2[nH]c3c4c5ccccc5nc-4c[nH]c3c2c1

>  <experimental_system>
GABA-A receptor; anion channel

>  <reported_result>
7.80

$$$$
>  <structure_smiles>
Clc1cccc2[nH]c3c4c5ccccc5nc-4c[nH]c3c12

>  <experimental_system>
GABA-A receptor; anion channel

>  <reported_result>
6.15

$$$$
>  <structure_smiles>
COc1ccc2[nH]c3c4c5ccccc5nc-4c[nH]c3c2c1

>  <experimental_system>
GABA-A receptor; anion channel

>  <reported_result>
6.05

$$$$
>  <structure_smiles>
Fc1cccc2c1[nH]c1c3c4ccccc4nc-3c[nH]c12

>  <experimental_system>
GABA-A receptor; anion channel

>  <reported_result>
7.92

$$$$
